Biological target: Plasma kallikrein (Homo sapiens)
Sequence (P03952 20-390 limits assumed): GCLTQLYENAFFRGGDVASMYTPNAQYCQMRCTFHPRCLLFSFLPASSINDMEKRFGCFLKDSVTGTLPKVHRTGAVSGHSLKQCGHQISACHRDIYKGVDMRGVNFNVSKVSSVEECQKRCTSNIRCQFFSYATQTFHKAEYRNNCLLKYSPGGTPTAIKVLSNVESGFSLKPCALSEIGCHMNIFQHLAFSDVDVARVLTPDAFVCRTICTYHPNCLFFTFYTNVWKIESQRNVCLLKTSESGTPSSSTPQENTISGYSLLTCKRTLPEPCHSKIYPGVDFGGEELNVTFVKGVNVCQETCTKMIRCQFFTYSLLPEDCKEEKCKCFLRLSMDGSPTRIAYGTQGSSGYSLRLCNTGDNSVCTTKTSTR
Sequence (P03952 391-638 limits assumed): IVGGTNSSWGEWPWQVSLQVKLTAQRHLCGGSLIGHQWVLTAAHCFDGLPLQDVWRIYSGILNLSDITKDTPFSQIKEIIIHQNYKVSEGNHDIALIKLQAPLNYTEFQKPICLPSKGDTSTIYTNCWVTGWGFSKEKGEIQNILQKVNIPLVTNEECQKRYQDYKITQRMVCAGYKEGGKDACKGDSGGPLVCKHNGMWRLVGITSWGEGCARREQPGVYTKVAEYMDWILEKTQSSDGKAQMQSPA
Test: Inhibition of human plasma kallikrein using S2302 as substrate after 10 mins by UV/Vis photometry
pKi: −log10 of the molar value.
metric_name: pKi

I: N=C(N)c1ccc(CNC(=O)[C@H](Cc2cccc(CN)c2)NC(=O)[C@@H](Cc2ccc3ccccc3c2)NS(=O)(=O)Cc2ccccc2)cc1
II: N=C(N)c1ccc(CNC(=O)[C@H](CCc2ccncc2)NC(=O)[C@@H](CCCc2ccccc2)NS(=O)(=O)Cc2ccccc2)cc1
// compare measured pKi, left I , right II , return larger // return label of chosen record
I

----------
Listed here: molecules with reported IC50 for Coagulation factor XI (Homo sapiens, UniProt P03951).
metric_name: IC50 (pM)

I: Cc1cc2nc(C(C)C)[nH]c2cc1-c1ccc(C[C@H](NC(=O)[C@H]2CC[C@H](CN)CC2)C(=O)Nc2ccc(-c3nnc(C(F)(F)C(F)(F)C(=O)O)[nH]3)cc2)cc1
II: Cc1cc2c(=O)c(C(=O)O)c[nH]c2cc1-c1ccc(C[C@H](NC(=O)[C@H]2CC[C@H](CN)CC2)C(=O)Nc2cc(Cl)c3[nH]c(=O)[nH]c3c2)cc1
III: Cc1nc2[nH]c(C3CC3)nc2cc1-c1ccc(C[C@H](NC(=O)[C@H]2CC[C@H](CN)CC2)C(=O)Nc2cc(Cl)c3[nH]c(=O)[nH]c3c2)cc1
Arrange the 3 entries by IC50 so the values rise. To answer, write out the labels according to the requested order.
I, III, II

----------
Tested on: Plasma
Experiment: Anti-fibrinolytic activity in 5% human plasma in presence of fibrinogen by spectrophotometric method
Type: functional, cell-free
pIC50: −log10 of the molar value.
metric_name: pIC50

Below, each entry is followed by its recorded pIC50 result.
{"columns": ["molecule", "pIC50"],
 "data": [
  ["CCC(C)C(=O)c1cnn2c(C3CCNCC3)cc(=O)[nH]c12 (stereo unspecified)", 8.10],
  ["C#Cc1cccc2nn3c(C4CCNCC4)cc(=O)[nH]c3c12", 8.00],
  ["O=C(c1cnn2c(C3CCNCC3)cc(=O)[nH]c12)C1CC1", 8.10]
]}

1: Cc1cc(Cl)c2c(c1)nn1c(C3CCNCC3)cc(=O)[nH]c21
2: CCCc1noc(-c2c(C)nn3c(C4CCNCC4)cc(=O)[nH]c23)n1
Just tell me: smaller pIC50 value, 1 or 2 ? Lab log: write the label of the selected item as the result.
1

meta.source: ChEMBL document CHEMBL4354815
